What melting point was measured for each of the following?

Guide cases for melting point, answers given:
compound="COc1cc(/C=C2/SC(=S)N(NC(=S)C(=O)Nc3cc(C(F)(F)F)cc(C(F)(F)F)c3)C2=O)cc(OC)c1OC [Compound 26]" assay_result="187 to 188 °C"
compound="CCOc1cccc(C=C2SC(=S)N(NC(=S)C(=O)Nc3ccc(O)cc3)C2=O)c1O [Compound 45]" assay_result="184 to 185 °C"
compound="O=C(Nc1ccc(O)cc1)C(=S)NN1C(=O)C(=Cc2cc(Cl)cc(Cl)c2O)SC1=S [Compound 50]" assay_result="217 to 218 °C"
compound="COc1cc(NC(=O)C(=S)NN2C(=O)C(=Cc3ccc([N+](=O)[O-])o3)SC2=S)cc(OC)c1OC [Compound 19]" assay_result="201 to 202 °C"
compound="O=C(Nc1ccc(O)cc1)C(=S)NN1C(=O)C(=Cc2cc(Br)cc(Br)c2O)SC1=S [Compound 51]" assay_result="189 to 190 °C"

Parameter requested: melting point. Apply to each item below.
1. CCOc1cc(-n2cnnn2)c(OCC)cc1NC(=O)C(=S)NN1C(=O)C(=Cc2ccc([N+](=O)[O-])o2)SC1=S [Compound 20]
2. O=C(Nc1ccc(F)cc1)C(=S)NN1C(=O)C(=Cc2ccc([N+](=O)[O-])o2)SC1=S [Compound 12]
3. COc1cc(NC(=O)C(=S)NN2C(=O)C(=Cc3cccc([N+](=O)[O-])c3O)SC2=S)cc(OC)c1OC [Compound 29]
4. O=C(Nc1ccc(O)cc1)C(=S)NN1C(=O)C(=Cc2cc(Cl)ccc2O)SC1=S [Compound 41]
5. COc1cc(C=C2SC(=S)N(NC(=S)C(=O)Nc3cccc(C(F)(F)F)c3)C2=O)cc(OC)c1OC [Compound 25]
6. O=C(Nc1ccc(O)cc1)C(=S)NN1C(=O)C(=Cc2ccc(O)c(C(=O)O)c2)SC1=S [Compound 49]
7. O=C(Nc1ccc(O)cc1)C(=S)NN1C(=O)C(=Cc2cc(N=Nc3ccccc3)ccc2O)SC1=S [Compound 48]
8. COc1cc(NC(=O)C(=S)NN2C(=O)/C(=C\c3ccc(O)c(C(=O)O)c3)SC2=S)cc(OC)c1OC [Compound 35]

1: 136 to 138 °C; 2: 155 to 156 °C; 3: 193 to 194 °C; 4: 220 to 221 °C; 5: 160 to 161 °C; 6: 223 to 224 °C; 7: 145 to 146 °C; 8: 239 to 240 °C

Parameter requested: melting point. Apply to each item below.
1. COc1cc(NC(=O)C(=S)NN2C(=O)C(=Cc3cc(N=Nc4ccccc4)ccc3O)SC2=S)cc(OC)c1OC [Compound 34]
2. COc1cc(C=C2SC(=S)N(NC(=S)C(=O)Nc3ccc(-n4cnnn4)c(C)c3)C2=O)cc(OC)c1OC [Compound 24]

1. 149 to 150 °C
2. 173 to 174 °C

###

Biological target: HIV-1 IN (Human immunodeficiency virus type 1 group M subtype B, UniProt P12497)
Construct: pre-incubated with purified recombinant IN (at a final concentration of 200 nM); made in house
Assay: In vitro IN inhibition assay (3’-processing and strand transfer)
Type: biochemical
Settings: Mn2+ cofactor (7.5 mM MnCl2); read-out: Inhibition of IN catalytic activity IC50, Strand Transfer
measurement-name: pIC50
Numbers only, as −log10 of the molar value.

smiles_string=COc1ccc(NC(=O)C(=S)NN2C(=O)C(=Cc3ccc([N+](=O)[O-])o3)SC2=S)cc1 assay_result=4.22

Parameter requested: pIC50. Apply to each item below.
1. COc1cc(Br)cc(C=C2SC(=S)N(NC(=S)C(=O)Nc3ccc(O)cc3)C2=O)c1O
2. O=C(Nc1ccc(O)cc1)C(=S)NN1C(=O)C(=Cc2cc(Cl)cc(Cl)c2O)SC1=S
3. O=C(Nc1ccc(O)cc1)C(=S)NN1C(=O)C(=Cc2cc(Cl)ccc2O)SC1=S
4. O=C(Nc1ccc(F)cc1)C(=S)NN1C(=O)C(=Cc2ccc([N+](=O)[O-])o2)SC1=S

[4.64, 4.26, 4.17, 4.03]
